# target.or.test.system: T1, rat GIP receptor (rGIPr) (Rattus norvegicus, UniProt P43219)
# T1 construct: expressed in transfected cells; host or cells: HEK293s or CHO cells
# T1 sequence (P43219 19-455): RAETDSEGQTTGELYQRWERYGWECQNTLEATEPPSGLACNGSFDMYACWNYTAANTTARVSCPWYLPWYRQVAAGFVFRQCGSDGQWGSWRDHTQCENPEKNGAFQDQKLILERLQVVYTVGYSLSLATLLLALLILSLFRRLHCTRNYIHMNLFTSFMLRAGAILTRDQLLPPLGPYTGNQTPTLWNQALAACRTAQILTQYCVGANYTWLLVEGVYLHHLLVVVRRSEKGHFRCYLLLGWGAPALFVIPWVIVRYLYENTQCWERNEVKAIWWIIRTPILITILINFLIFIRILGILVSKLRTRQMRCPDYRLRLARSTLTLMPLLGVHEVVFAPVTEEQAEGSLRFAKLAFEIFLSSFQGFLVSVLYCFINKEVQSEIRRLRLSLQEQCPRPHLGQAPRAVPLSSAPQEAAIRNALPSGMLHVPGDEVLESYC
# experiment.summary: BSA-cAMP assay, cells expressing rat GIP receptor
# Format: cell-based
# settings: BSA-cAMP assay; read-out: cAMP activity rGIPr (EC50)
pEC50: −log10 of the molar value.
Returns 1.0 if the recorded pEC50 is greater than or equal to 10, and 0.0 otherwise.

Study these solved cases before continuing.
IP247: Fc fusion, IgG1-TM, SEQ ID NO:117; agonist peptide YSEGTFTSDYSKLLEKIHQQLFIEWLVKGP (protein, also: Fc fusion, IgG1-TM, agonist peptide YSEGTFTSDYSKLLEKIHQQLFIEWLVKGP) YSEGTFTSDYSKLLEKIHQQLFIEWLVKGPAAAGGSGSTASSGSGSATGGGGAATHTCPPCPAPEF :: 1.0
IP250 (protein, /note=“Description of Artificial Sequence Synthetic Peptide-linker-hinge polypeptide”) YSEGTFTSDVSIAMDRQAIDEFIAWLLKGGAAAGGSGSTASSGSGSATGGGGAATHTCPPCPAPEF :: 0.0
IP170 (protein, /note=“Description of Artificial Sequence Synthetic Peptide-linker-hinge polypeptide”) YSEGTFTSDVSSYMERQAIDEFIAWLLKGGAAAGGSGSTASSGSGSATGGGGAATHTCPPCPAPEF :: 0.0
IP246: Fc fusion, IgG1-TM, SEQ ID NO:116; agonist peptide YSEGTFTSDYSKLLEGQAAKLFIEWLVKGP (protein, also: Fc fusion, IgG1-TM, agonist peptide YSEGTFTSDYSKLLEGQAAKLFIEWLVKGP) YSEGTFTSDYSKLLEGQAAKLFIEWLVKGPAAAGGSGSTASSGSGSATGGGGAATHTCPPCPAPEF :: 0.0
IP223 (protein, /note=“Description of Artificial Sequence Synthetic Peptide-linker-hinge polypeptide”) YSEGTFTSDVSSYMEEEAIDEFIAWLLKGGAAAGGSGSTASSGSGSATGGGGAATHTCPPCPAPEF :: 0.0
IP226 (protein, /note=“Description of Artificial Sequence Synthetic Peptide-linker-hinge polypeptide”) YSEGTFTSDVSKLLERQAIDEFIAWLLKGGAAAGGSGSTASSGSGSATGGGGAATHTCPPCPAPEF :: 0.0

Now look at this entry.
Kindly determine if pEC50 recorded for IP018 (protein, /note=“Description of Artificial Sequence Synthetic Peptide-linker-hinge polypeptide”) YSEGTFISDYSIAMDKIHQQDFVNWLLAQKAAAGGSGSTASSGSGSATGGGGAATHTCPPCPAPEF is above or exactly 10.
1.0
